system_under_test: T1, mouse CB1 (mouse, UniProt P47746 1-473)
T1 construct: also called muCB1; murine CB1
protocol_summary: fold over mock (Table 14)
experimental_endpoint: binding result

| binder | experimental_endpoint | result |
| --- | --- | --- |
| LIBC527997-1 (antibody, IgG1, V domains shown) VH: QVQLQESGPGLVKPSQTLSLTCTVSGGSIRRGGDYWAWIRQHPGKGLEWIGHIYQTGSTNYNPRFKGRATISVNTYKNQFSLKLSSVTAADTAVYYCARNYDTLTGYSYYYYGMDVWGQGTTVTVSS VL: DIQMTQSPSSLSASVGDRVTITCRASQSISNYLNWYQQKPGKAPKLLIYAASSLHSGVPSRFSGSGSGTDFTLTISSLQPEDFASYYCQQYQSYPLTFGQGTKVEIKR | binding result | no binding |
| LIBC523797-1 (antibody, IgG1, V domains shown) VH: QVQLQESGPGLVKPSQTLSLTCTVSGGSIRRGGDYWSWIRQHPGKGLEWIGHVYYTGSTKYNPNFKGRATISVNTYKNQFSLKLSSVTAADTAVYYCARDYDILTGYSYYYYGMDVWGQGTTVTVSS VL: DIVMTQSPLSLPVTPGEPASISCRSSQSLLTSYGINYVDWYLQKPGQSPQLLIYQGSNRASGVPDRFSGSGSGTDFTLKISRVEAEDVGVYYCRQAVGLPRTFGQGTKVEIKR | binding result | no binding |
| LIBC528116-1 (antibody, IgG1, V domains shown, also called 37940-4) VH: QVQLQESGPGLVKPSQTLSLTCTVSGGSIRRGGDYWAWIRQHPGKGLEWIGHVYYTGSTNYNPRFKDRATISVNTYKNQFSLKLSSVTAADTAVYYCARNYDTVTGYSYYYYGMDVWGQGTTVTVSS VL: DIQLTQSPSTLSASVGDRVTITCRASQSISNYLNWYQQKPGKAPKLLIYAASSLHSGVPSRFSGSGSGTDFTLTISSLQPEDFASYYCQQYQSYPLTFGQGTKVEIKR | binding result | no binding |
